As shown below, each of these compounds has a reported CCR2 % ANTAG value.
molecular target: CCR2 (Homo sapiens); construct: expressed in transfected cells; experiment: CCR2 calcium activity assay on FLIPR Tetra in HEK-Gqi5 cells stably expressing CCR2; assay type: cell-based

| smiles-repr | CCR2 % ANTAG |
| --- | --- |
| COC(=O)c1ccc(NS(=O)(=O)c2cccs2)c(NS(=O)(=O)c2ccc3c(c2)c(=O)sn3C)c1 | 76% |
| Cc1cccc(NS(=O)(=O)c2ccc3c(c2)c(=O)sn3C)c1NS(=O)(=O)c1cccs1 | 86% |
| CC(C)Oc1ccc(S(=O)(=O)Nc2ccc(Cl)cc2NS(=O)(=O)c2ccc3c(c2)c(=O)sn3C)cc1 | 72% |
| Cn1sc(=O)c2cc(S(=O)(=O)Nc3cc(Cl)cc4c3OCCO4)ccc21 | 63% |
| Cn1sc(=O)c2cc(S(=O)(=O)Nc3ccccc3NS(=O)(=O)c3ccc(Cl)s3)ccc21 | 104% |
| CSc1cccc(NS(=O)(=O)c2ccc3c(c2)c(=O)sn3C)c1 | 86% |
| Cn1sc(=O)c2cc(S(=O)(=O)Nc3cccc(Cl)c3NS(=O)(=O)c3cccs3)ccc21 | 100% |
| COC(=O)c1ccc(NS(=O)(=O)c2ccc3c(c2)c(=O)sn3C)c(NS(=O)(=O)c2cccs2)c1 | 0% |
| Cn1sc(=O)c2cc(S(=O)(=O)Nc3cccc(Cl)c3)ccc21 | 84% |

----------
target: CCR2 (Homo sapiens); construct: expressed in transfected cells; assay: CCR2 calcium activity assay on FLIPR Tetra in HEK-Gqi5 cells stably expressing CCR2; format: cell-based
Strictly below 70% in CCR2 % ANTAG: label 1. Otherwise: label 0.

| molecule | experimental-system | label-value |
| --- | --- | --- |
| Cn1sc(=O)c2cc(S(=O)(=O)Nc3ccccc3NS(=O)(=O)c3ccccc3)ccc21 | CCR2 (Homo sapiens) | label 0 |
| CN(C)c1ccc(NS(=O)(=O)c2ccc3c(c2)c(=O)sn3C)c(NS(=O)(=O)c2cccs2)c1 | CCR2 (Homo sapiens) | label 0 |
| COc1cccc(NS(=O)(=O)c2ccc3c(c2)c(=O)sn3C)c1NS(=O)(=O)c1cccs1 | CCR2 (Homo sapiens) | label 1 |
| Cn1sc(=O)c2cc(S(=O)(=O)Nc3ccccc3NS(=O)(=O)c3ccoc3)ccc21 | CCR2 (Homo sapiens) | label 0 |
| Cn1sc(=O)c2cc(S(=O)(=O)Nc3cc(Cl)ccc3NS(=O)(=O)c3ccc(O)cc3)ccc21 | CCR2 (Homo sapiens) | label 0 |
| Cn1sc(=O)c2cc(S(=O)(=O)Nc3cc(C(F)(F)F)c(Cl)cc3NS(=O)(=O)c3cccs3)ccc21 | CCR2 (Homo sapiens) | label 0 |
| Cn1sc(=O)c2cc(S(=O)(=O)NC3CCN(S(=O)(=O)c4cccs4)C3)ccc21 (stereo not drawn) | CCR2 (Homo sapiens) | label 1 |
| COc1ccc(S(=O)(=O)Nc2ccccc2NS(=O)(=O)c2ccc3c(c2)c(=O)sn3C)cc1 | CCR2 (Homo sapiens) | label 1 |
| Cn1ccc(S(=O)(=O)Nc2ccccc2NS(=O)(=O)c2ccc3c(c2)c(=O)sn3C)n1 | CCR2 (Homo sapiens) | label 1 |

----------
molecular target: CCR2 (Homo sapiens, UniProt P41597); assay: CCR2 calcium activity assay on FLIPR Tetra in HEK-Gqi5 cells stably expressing CCR2
Sequence (P41597 whole entry, species assumed): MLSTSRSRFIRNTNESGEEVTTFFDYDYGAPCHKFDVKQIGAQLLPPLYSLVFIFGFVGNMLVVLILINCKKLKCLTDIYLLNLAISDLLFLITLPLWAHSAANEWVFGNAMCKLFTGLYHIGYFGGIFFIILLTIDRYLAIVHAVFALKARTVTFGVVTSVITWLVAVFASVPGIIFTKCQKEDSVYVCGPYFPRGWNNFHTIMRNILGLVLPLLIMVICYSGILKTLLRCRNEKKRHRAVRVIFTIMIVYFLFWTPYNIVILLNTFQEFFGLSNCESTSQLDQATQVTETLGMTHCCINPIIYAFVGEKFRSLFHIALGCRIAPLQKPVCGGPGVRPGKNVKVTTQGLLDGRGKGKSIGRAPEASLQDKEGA
As shown below, each of these compounds has a reported IC50 value.
quantity: IC50 (µM)

| compound | experimental-system | unit-descriptor | reading-qualifier | endpoint-result |
| --- | --- | --- | --- | --- |
| CN(C)c1ccc(NS(=O)(=O)c2cccs2)c(NS(=O)(=O)c2ccc3c(c2)c(=O)sn3C)c1 | CCR2 (Homo sapiens, UniProt P41597) | µM | = | 0.551 |
| CCc1ccc(NS(=O)(=O)c2cccs2)c(NS(=O)(=O)c2ccc3c(c2)c(=O)sn3C)c1 | CCR2 (Homo sapiens, UniProt P41597) | µM | = | 1.94 |
| Cn1sc(=O)c2cc(S(=O)(=O)NC(C)(C)CNS(=O)(=O)c3cccs3)ccc21 | CCR2 (Homo sapiens, UniProt P41597) | µM | = | 2.49 |
| Cn1sc(=O)c2cc(S(=O)(=O)Nc3cc(Cl)ccc3NS(=O)(=O)c3cccc(Cl)c3)ccc21 | CCR2 (Homo sapiens, UniProt P41597) | µM | = | 0.493 |
| Cn1sc(=O)c2cc(S(=O)(=O)N3CCC(NS(=O)(=O)c4cccs4)C3)ccc21 (centres unmarked) | CCR2 (Homo sapiens, UniProt P41597) | µM | = | 2.76 |
| Cc1ccc(S(=O)(=O)Nc2ccc(Cl)cc2NS(=O)(=O)c2ccc3c(c2)c(=O)sn3C)s1 | CCR2 (Homo sapiens, UniProt P41597) | µM | = | 0.497 |
| Cn1sc(=O)c2cc(S(=O)(=O)N[C@@H]3CCCC[C@@H]3NS(=O)(=O)c3cccs3)ccc21 (relative stereo) | CCR2 (Homo sapiens, UniProt P41597) | µM | = | 2.18 |
| COC(=O)c1ccc(NS(=O)(=O)c2ccc3c(c2)c(=O)sn3C)c(NS(=O)(=O)c2cccs2)c1 | CCR2 (Homo sapiens, UniProt P41597) | µM | > | 8.3 |

Hello, the source for this data is patent US8524745B2, in case you need it.
